# System: 958667-338-R-J2-PDC tumor spheroids viability
# protocol: Anticancer human tumor 958667-338-R-J2-PDC patient-derived colon adenocarcinoma cell line growth inhibition [PI3K]
# protocol_conditions: second compound 1 µM; first compound 10 µM; active compounds read low; spheroids with HUVEC and MSC
# Text: Combinatorial screen of targeted agents with the PI3K inhibitors inavolisib, alpelisib, duvelisib, and copanlisib in multi-cell type tumor spheroids A high-throughput screen of multi-cell type tumor spheroids was designed to identify active combinations of targeted small molecules and PI3K pathway inhibitors. […] Compounds. […] If the clinical Cmax for an agent had not been determined, the highest concentration tested was 10 microM. […]
Sorting guide: entries reporting viability, T/C beneath 70% go in the label 1 pile, the rest go in the label 0 pile.

{"compound": "C[C@@H](NC(=O)c1ncnc(N)c1Cl)c1ncc(C(=O)Nc2cc(C(F)(F)F)c(Cl)cn2)s1 + CC(Nc1ncnc2nc[nH]c12)c1cc2cccc(Cl)c2c(=O)n1-c1ccccc1", "group_label": "label 0"}
{"compound": "CNC(=O)c1ccc(N2C(=S)N(c3ccc(C#N)c(C(F)(F)F)c3)C(=O)C2(C)C)cc1F + CC(Nc1ncnc2nc[nH]c12)c1cc2cccc(Cl)c2c(=O)n1-c1ccccc1", "group_label": "label 0"}
{"compound": "C[C@@H](NC(=O)c1ncnc(N)c1Cl)c1ncc(C(=O)Nc2cc(C(F)(F)F)c(Cl)cn2)s1 + Cc1nc(NC(=O)N2CCCC2C(N)=O)sc1-c1ccnc(C(C)(C)C(F)(F)F)c1", "group_label": "label 0"}
{"compound": "CC1(C)CCC(CN2CCN(c3ccc(C(=O)NS(=O)(=O)c4ccc(NCC5CCOCC5)c([N+](=O)[O-])c4)c(Oc4cnc5[nH]ccc5c4)c3)CC2)=C(c2ccc(Cl)cc2)C1 + COc1c(OCCCN2CCOCC2)ccc2c3n(c(=NC(=O)c4cnc(N)nc4)nc12)CCN3", "group_label": "label 1"}
{"compound": "CC1(C)CCC(Nc2ncc(C(F)(F)F)c(-c3c[nH]c4c(P(C)(C)=O)c(C#N)ccc34)n2)CN1 (stereo unspecified) + CC(Nc1ncnc2nc[nH]c12)c1cc2cccc(Cl)c2c(=O)n1-c1ccccc1", "group_label": "label 1"}
{"compound": "CC1(C)CCC(CN2CCN(c3ccc(C(=O)NS(=O)(=O)c4ccc(NCC5CCOCC5)c([N+](=O)[O-])c4)c(Oc4cnc5[nH]ccc5c4)c3)CC2)=C(c2ccc(Cl)cc2)C1 + CC(Nc1ncnc2nc[nH]c12)c1cc2cccc(Cl)c2c(=O)n1-c1ccccc1", "group_label": "label 0"}

---

# System: 958667-338-R-J2-PDC tumor spheroids viability
# protocol: Anticancer human tumor 958667-338-R-J2-PDC cell line growth inhibition [PI3K];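 also: spheroids exposed to compounds for seven days before readout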
# protocol_conditions: second compound 0.01 µM; first compound 3.16 µM; active compounds read low; spheroids with HUVEC and MSC
# viability, T/C per record follows

{"molecule": "CC1(C)CCC(CN2CCN(c3ccc(C(=O)NS(=O)(=O)c4ccc(NCC5CCOCC5)c([N+](=O)[O-])c4)c(Oc4cnc5[nH]ccc5c4)c3)CC2)=C(c2ccc(Cl)cc2)C1 + COc1c(OCCCN2CCOCC2)ccc2c3n(c(=NC(=O)c4cnc(N)nc4)nc12)CCN3", "tested_system": "958667-338-R-J2-PDC tumor spheroids viability", "viability, T/C": "75.8%"}
{"molecule": "CCCS(=O)(=O)Nc1ccc(F)c(C(=O)c2c[nH]c3ncc(-c4ccc(Cl)cc4)cc23)c1F + COc1c(OCCCN2CCOCC2)ccc2c3n(c(=NC(=O)c4cnc(N)nc4)nc12)CCN3", "tested_system": "958667-338-R-J2-PDC tumor spheroids viability", "viability, T/C": "110%"}
{"molecule": "CNC(=O)c1ccc(N2C(=S)N(c3ccc(C#N)c(C(F)(F)F)c3)C(=O)C2(C)C)cc1F + CC(Nc1ccc2c(c1)OCCn1cc(N3C(=O)OCC3C(F)F)nc1-2)C(N)=O", "tested_system": "958667-338-R-J2-PDC tumor spheroids viability", "viability, T/C": "89.9%"}
{"molecule": "CC(C)NCC(C(=O)N1CCN(c2ncnc3c2C(C)CC3O)CC1)c1ccc(Cl)cc1 (centres undefined) + COc1c(OCCCN2CCOCC2)ccc2c3n(c(=NC(=O)c4cnc(N)nc4)nc12)CCN3", "tested_system": "958667-338-R-J2-PDC tumor spheroids viability", "viability, T/C": "54.8%"}
